# system-under-test: hNTS1 receptor (Homo sapiens, UniProt P30989)
# Construct: membranes prepared from them
# Sequence (P30989 whole entry): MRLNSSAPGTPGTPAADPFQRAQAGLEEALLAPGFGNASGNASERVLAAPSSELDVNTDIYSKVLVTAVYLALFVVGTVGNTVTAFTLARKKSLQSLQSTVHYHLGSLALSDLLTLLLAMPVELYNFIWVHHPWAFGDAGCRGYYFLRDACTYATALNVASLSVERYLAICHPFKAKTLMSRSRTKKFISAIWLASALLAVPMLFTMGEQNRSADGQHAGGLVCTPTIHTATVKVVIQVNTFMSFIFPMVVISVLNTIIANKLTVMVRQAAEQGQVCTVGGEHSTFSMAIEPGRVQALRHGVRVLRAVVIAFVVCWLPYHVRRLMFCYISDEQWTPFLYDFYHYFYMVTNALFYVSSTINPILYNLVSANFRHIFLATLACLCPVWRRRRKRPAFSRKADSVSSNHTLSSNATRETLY
# assay-protocol: Competitive radioligand binding assay on the hNTS1 receptor
# assay-setup: displacement of 125I-[Tyr3]-NT, membranes of CHO-K1 cells expressing hNTS1; read-out: IC50 NTS1
pIC50: −log10 of the molar value. Where a SMILES comes first, the peptide text is derived from it. Bridges are numbered along the chain shown (N, C = ends). [ ]: non-standard residue; d: D form. Phe(3-Cl) = N[C@@H](Cc1cccc(Cl)c1)C(=O)O; Phe(3-I) = N[C@@H](Cc1cccc(I)c1)C(=O)O; 2Thi = N[C@@H](Cc1cccs1)C(=O)O; AllylGly = C=CC[C@H](N)C(=O)O; Pen = CC(C)(S)[C@H](N)C(=O)O; Nle = CCCC[C@H](N)C(=O)O
# pIC50 annotations

Completed entries (count: 4):
compound="CC(C)C[C@H](NC(=O)[C@H](Cc1c[nH]c2ccccc12)NC(=O)[C@@H]1CC=CC[C@H](N)C(=O)N[C@@H](CCCCN)C(=O)N[C@@H](CCCCN)C(=O)N1)C(=O)O [compound 16, c[G(All)KKG(All)]WL] (H-[AllylGly]KK[AllylGly]WL-OH; staple 1-4)" system_under_test="hNTS1 receptor (Homo sapiens, UniProt P30989)" test_result="< 4.00"
compound="CC(C)C[C@H](NC(=O)[C@H](Cc1ccc(O)cc1)NC(=O)[C@@H]1CC(=O)NCCCC[C@H](N)C(=O)N[C@@H](CCCCN)C(=O)N[C@@H](CCCCN)C(=O)N1)C(=O)O [compound 97, c[KKKD]YL] (H-KKKDYL-OH; lactam 1-4)" system_under_test="hNTS1 receptor (Homo sapiens, UniProt P30989)" test_result="< 4.00"
compound="CC(C)C[C@H](NC(=O)[C@H](Cc1cccs1)NC(=O)[C@@H]1CC=CC[C@H](N)C(=O)N[C@@H](CCCCN)C(=O)N[C@@H](CCCCN)C(=O)N1)C(=O)O [compound 159, c[G(All)KKG(All)]A(2-thienyl)L] (H-[AllylGly]KK[AllylGly][2Thi]L-OH; staple 1-4)" system_under_test="hNTS1 receptor (Homo sapiens, UniProt P30989)" test_result="< 4.00"
compound="CCCC[C@@H]1NC(=O)[C@H](CCCCN)NC(=O)[C@@H](N)CC=CC[C@@H](C(=O)N[C@@H](Cc2ccc(O)cc2)C(=O)N[C@@H](CC(C)C)C(=O)O)NC1=O [compound 57, c[G(All)KNleG(All)]YL] (H-[AllylGly]K[Nle][AllylGly]YL-OH; staple 1-4)" system_under_test="hNTS1 receptor (Homo sapiens, UniProt P30989)" test_result="< 4.00"

Respond only with pIC50 recorded for CC(C)C[C@H](NC(=O)[C@H](Cc1cccc(I)c1)NC(=O)[C@@H]1CC=CC[C@H](N)C(=O)N[C@@H](CCCCN)C(=O)N[C@@H](CCCCN)C(=O)N1)C(=O)O [compound 117, c[G(All)KKG(All)]F(3-iodo)L] (H-[AllylGly]KK[AllylGly][Phe(3-I)]L-OH; staple 1-4)
< 4.00

Respond only with pIC50 recorded for CC(C)C[C@H](NC(=O)[C@H](Cc1cccc(Cl)c1)NC(=O)[C@@H]1CC=CC[C@H](N)C(=O)N[C@@H](CCCCN)C(=O)N[C@@H](CCCCN)C(=O)N1)C(=O)O [compound 113, c[G(All)KKG(All)]F(3-chloro)L] (H-[AllylGly]KK[AllylGly][Phe(3-Cl)]L-OH; staple 1-4)
< 4.00

Respond only with pIC50 recorded for CC(C)C[C@H](NC(=O)[C@H](Cc1ccc(O)cc1)NC(=O)[C@H]1NC(=O)[C@H](CCCCN)NC(=O)[C@H](CCCCN)NC(=O)[C@@H](N)C(C)(C)SSC1(C)C)C(=O)O [compound 155, c[(Pen)KK(Pen)]YL] (H-[Pen]KK[Pen]YL-OH; disulfide 1-4)
< 4.00

The measurements presented in this section are drawn from patent US12358948B2.
